Target: UniProt P41594
Assay: Cell-based functional Ca2+ mobilization assay (FDSS), potentiation of glutamate EC20 response
Conditions: H10H cell-line (HEK, recombinant human mGluR5); positive allosteric modulation in presence of glutamate EC20; concentration in mol/L
So basically: is EC50 under 400 nM? Then Satisfied. Not under? Then Not satisfied.

| smilesRepresentation | labelClass |
| --- | --- |
| Cc1cncc(CN2CCn3nc(COc4ccccc4)cc3C2=O)n1 | Not satisfied |
| COc1ccc(CN2CCn3nc(COc4ccnc(C)c4)cc3C2=O)cc1 | Not satisfied |

Lab note: next compound to report on.
Does O=C1c2cc(COc3ccccc3)nn2CCN1Cc1ccccc1Cl have EC50 strictly under 400 nM?
Satisfied

----------
Biological target: human mGluR5 (Homo sapiens)
Assay: Cell-based functional Ca2+ mobilization assay (FDSS), potentiation of glutamate EC20 response
Conditions: H10H cell-line (HEK, recombinant human mGluR5); positive allosteric modulation in presence of glutamate EC20; concentration in mol/L
measuredQuantity: pEC50
Would you please state pEC50, meaning minus log10 of the concentration in mol/L, as a bare number?

Solved cases (3 shown):
| compound | pEC50 |
| --- | --- |
| COc1cccc(CN2CCn3nc(COc4ccccc4)cc3C2=O)n1 [Example B1] | 7.04 |
| O=C1c2cc(COc3ccccc3)nn2CCN1Cc1ncccc1Cl [Example B6] | 6.92 |
| COc1cccc(CN2CCn3nc(COc4ccccc4)cc3C2=O)c1 [Example B36] | 6.97 |

Kindly review the next compound as well.
Look at this compound and give its reported pEC50. COc1cccc(CN2CCn3nc(COc4ccccc4)cc3C2=O)c1Cl [Example B60]
7.10

----------
Some molecules, each annotated with its measured melting point.
Hi! Could you send only the number? It should be in °C, unit omitted.

| molecule | measuredQuantity | unitLabel | quantitativeResult |
| --- | --- | --- | --- |
| Cc1ccnc(OCc2cc3n(n2)CCN(Cc2ccccc2)C3=O)c1 [Example B62] | melting point | °C | 75.4 |

Look at this molecule and give its reported melting point. O=C1c2cc(COc3ccccc3)nn2CCN1Cc1cccc2cccnc12 [Example B93]
131.3

Look at this molecule and give its reported melting point. O=C1c2cc(COc3ccccc3)nn2CCN1Cc1cccc(F)c1F [Example B23]
122.8

Look at this molecule and give its reported melting point. O=C1c2cc(COc3ccccc3)nn2CCN1Cc1ccc(C(F)(F)F)nc1 [Example B95]
115.4

Look at this molecule and give its reported melting point. Cc1ccc(CN2CCn3nc(COc4ccccc4)cc3C2=O)cc1 [Example B65]
164.9

Look at this molecule and give its reported melting point. O=C1c2cc(COc3ccccc3)nn2CCN1Cc1ccc(F)cn1 [Example B5]
126.5

----------
Some compounds, each annotated with its measured pEC50.
Biological target: human mGluR5 (Homo sapiens, UniProt P41594)
Sequence (P41594 21-1180 isoform P41594-2 limits assumed): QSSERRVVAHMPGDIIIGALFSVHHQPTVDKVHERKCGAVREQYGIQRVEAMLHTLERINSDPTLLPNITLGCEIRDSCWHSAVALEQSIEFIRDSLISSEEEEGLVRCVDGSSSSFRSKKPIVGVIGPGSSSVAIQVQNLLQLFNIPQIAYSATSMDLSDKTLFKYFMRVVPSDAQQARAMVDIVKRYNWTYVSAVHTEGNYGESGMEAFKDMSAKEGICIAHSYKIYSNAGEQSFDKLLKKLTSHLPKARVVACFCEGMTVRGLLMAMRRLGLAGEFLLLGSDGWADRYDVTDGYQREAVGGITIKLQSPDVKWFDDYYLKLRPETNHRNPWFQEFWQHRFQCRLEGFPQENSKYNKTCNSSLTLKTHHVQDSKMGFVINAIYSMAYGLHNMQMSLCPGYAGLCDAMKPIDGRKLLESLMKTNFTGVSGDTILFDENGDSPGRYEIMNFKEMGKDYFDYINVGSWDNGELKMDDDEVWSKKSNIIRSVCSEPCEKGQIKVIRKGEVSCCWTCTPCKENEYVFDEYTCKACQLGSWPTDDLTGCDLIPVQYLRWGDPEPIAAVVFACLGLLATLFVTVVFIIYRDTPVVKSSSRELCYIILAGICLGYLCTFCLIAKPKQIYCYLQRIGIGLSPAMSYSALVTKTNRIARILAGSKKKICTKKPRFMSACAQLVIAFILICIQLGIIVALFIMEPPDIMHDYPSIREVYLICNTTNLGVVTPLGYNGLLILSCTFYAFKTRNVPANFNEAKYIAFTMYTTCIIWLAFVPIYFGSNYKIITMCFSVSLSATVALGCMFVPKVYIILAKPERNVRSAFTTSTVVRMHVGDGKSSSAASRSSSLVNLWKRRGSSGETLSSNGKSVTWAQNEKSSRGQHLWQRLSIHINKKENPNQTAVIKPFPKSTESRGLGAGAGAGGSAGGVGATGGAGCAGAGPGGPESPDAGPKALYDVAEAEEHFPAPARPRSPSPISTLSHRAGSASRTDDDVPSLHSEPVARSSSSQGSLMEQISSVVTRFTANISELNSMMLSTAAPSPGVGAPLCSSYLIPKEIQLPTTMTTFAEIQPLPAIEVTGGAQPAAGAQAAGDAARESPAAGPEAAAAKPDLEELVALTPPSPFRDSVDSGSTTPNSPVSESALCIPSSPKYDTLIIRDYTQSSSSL
Assay: Cell-based functional Ca2+ mobilization assay (FDSS), potentiation of glutamate EC20 response
Conditions: H10H cell-line (HEK, recombinant human mGluR5); positive allosteric modulation in presence of glutamate EC20; concentration in mol/L
Would you please state pEC50, meaning minus log10 of the concentration in mol/L, as a bare number?

Solved cases (3 shown):
| smilesRepresentation | systemUnderTest | pEC50 |
| --- | --- | --- |
| O=C1c2cc(COc3ccccc3)nn2CCN1Cc1cccc(F)c1F | human mGluR5 (Homo sapiens, UniProt P41594) | 7.50 |
| COc1cccnc1CN1CCn2nc(COc3ccccc3)cc2C1=O | human mGluR5 (Homo sapiens, UniProt P41594) | 5.94 |
| CC1(C)CN(Cc2ccccc2)C(=O)c2cc(COc3ccccc3)nn21 | human mGluR5 (Homo sapiens, UniProt P41594) | 6.75 |

Kindly review the next compound as well.
Look at this compound and give its reported pEC50. Cc1cc(CN2CCn3nc(COc4ccccc4)cc3C2=O)ncc1F
6.45
